experimentalSystem: Hk-gaga (UniProt Q08605)
Sequence (Q08605 other isoform, or with tags, fused parts or gaps): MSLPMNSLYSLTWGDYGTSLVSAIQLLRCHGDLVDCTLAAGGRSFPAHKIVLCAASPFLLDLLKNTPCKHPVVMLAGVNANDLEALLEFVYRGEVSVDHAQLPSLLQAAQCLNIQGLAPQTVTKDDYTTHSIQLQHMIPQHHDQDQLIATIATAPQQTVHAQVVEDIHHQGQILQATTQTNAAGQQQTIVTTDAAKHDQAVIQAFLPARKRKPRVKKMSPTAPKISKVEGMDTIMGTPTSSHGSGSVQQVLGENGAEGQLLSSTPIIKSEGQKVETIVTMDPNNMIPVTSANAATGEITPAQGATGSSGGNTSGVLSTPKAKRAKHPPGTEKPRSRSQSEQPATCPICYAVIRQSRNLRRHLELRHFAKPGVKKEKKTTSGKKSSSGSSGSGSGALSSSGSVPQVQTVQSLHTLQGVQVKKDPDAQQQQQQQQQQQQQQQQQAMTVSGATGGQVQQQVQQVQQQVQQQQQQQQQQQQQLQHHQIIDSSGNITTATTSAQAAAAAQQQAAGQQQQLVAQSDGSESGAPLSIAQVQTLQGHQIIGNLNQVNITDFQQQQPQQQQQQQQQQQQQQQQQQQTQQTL
experimentSummary: fluorescence anisotropy
details: 50 uM bp calf thymus DNA; Zn2+; EMSA: 18 mM Tris-HCl pH 7.5, 90 mM KCl, 1.8 mM MgCl2, 0.2 mM TCEP, 9% glycerol, 0.11 mg/mL BSA, 2.2% NP-40, 0.02 mM ZnCl2, 20 C, 75 nM DNA; FA: 20 mM Tris-HCl …
valueKind: Kd (nM)

> print(dat)
                                biosequence        experimentalsystem  readoutunits  reportedmeasurement
1  CGCGTCATAATTGAGAGCGC (double strand) [TMR-AT·GAG]  Hk-gaga (UniProt Q08605)            nM                   92

====

experimentalSystem: gaga-Hk (UniProt Q08605)
Sequence (Q08605 other isoform, or with tags, fused parts or gaps): as the sequence (Q08605 other isoform, or with tags, fused parts or gaps) above
experimentSummary: fluorescence anisotropy
details: no calf thymus DNA; Zn2+; EMSA: 18 mM Tris-HCl pH 7.5, 90 mM KCl, 1.8 mM MgCl2, 0.2 mM TCEP, 9% glycerol, 0.11 mg/mL BSA, 2.2% NP-40, 0.02 mM ZnCl2, 20 C, 75 nM DNA; FA: 20 mM Tris-HCl …
valueKind: Kd (nM)

> print(dat)
                                biosequence  reportedmeasurement
1  CGCGTCATCAGCGAGAGCGC (double strand) [TMR-cg·GAG]                  100
2  CGCGTCATAATTGAGAGCGC (double strand) [TMR-AT·GAG]                   41

====

experimentalSystem: gaga-Hk-gaga (UniProt Q08605)
Sequence (Q08605 other isoform, or with tags, fused parts or gaps): as the sequence (Q08605 other isoform, or with tags, fused parts or gaps) above
experimentSummary: fluorescence anisotropy
details: no calf thymus DNA; Zn2+; EMSA: 18 mM Tris-HCl pH 7.5, 90 mM KCl, 1.8 mM MgCl2, 0.2 mM TCEP, 9% glycerol, 0.11 mg/mL BSA, 2.2% NP-40, 0.02 mM ZnCl2, 20 C, 75 nM DNA; FA: 20 mM Tris-HCl …
pKd: −log10 of the molar value.
valueKind: pKd

> print(dat)
                                biosequence  reportedmeasurement
1  GAGCTCTCAATTGAGAGCGCG (double strand) [TMR-CTC·AT·GAG]                 7.46

====

experimentalSystem: Hk-gaga (UniProt Q08605)
experimentSummary: fluorescence anisotropy
details: no calf thymus DNA; Zn2+; EMSA: 18 mM Tris-HCl pH 7.5, 90 mM KCl, 1.8 mM MgCl2, 0.2 mM TCEP, 9% glycerol, 0.11 mg/mL BSA, 2.2% NP-40, 0.02 mM ZnCl2, 20 C, 75 nM DNA; FA: 20 mM Tris-HCl …
valueKind: Kd (nM)

> print(dat)
                                biosequence  reportedmeasurement
1  CGCGTCATAATTGAGAGCGC (double strand) [TMR-AT·GAG]                   44
